Assign MIC ATB combined with Example to each entry below.
# System: SPN 49619
# assay: MIC, broth microdilution (CLSI), substance alone or ATB combined with compound at 4 or 8 μg/mL
# Assay type: cell-based, S. pneumoniae
# assay conditions: ATB FOS; SPN 49619; Example @8 μg/ml
# Protocol: Compounds of the present invention were assessed against genotyped bacterial strains alone or in combination with an antibacterial. In the assays, MICs of said compounds or combination of antibiotics with fixed concentrations of said compounds (4 or 8 μg/mL) were determined by the broth microdilution method according to the Clinical Laboratory Standards Institute (CLSI-M7-A7). […]
Give bare numbers, in µg/mL.

compound | MIC ATB combined with Example, µg/mL
O=C1N2CC(n3cccn3)=CC(C2)N1OC(F)(F)C(=O)[O-].[Li+] (centres unmarked) | 32
O=C1N2CC(n3cncn3)=CC(C2)N1OS(=O)(=O)[O-].[Na+] (centres unmarked) | 0.5
O=C1N2CC(n3cccn3)=CC(C2)N1OS(=O)(=O)[O-].[Na+] (centres unmarked) | 8

Field: next compound
# return recorded MIC ATB combined with Example for entry O=C1N2CC(n3ccnn3)=CC(C2)N1OS(=O)(=O)[O-].[Na+] (centres unmarked)
8

---

Would you mind telling me the reported MIC ATB combined with Example of each entry?
# System: PAE UFR90
# assay: MIC, broth microdilution (CLSI), substance alone or ATB combined with compound at 4 or 8 μg/mL
# Format: cell-based, P. aeruginosa
# assay conditions: ATB PIP; PAE UFR90; Example @8 μg/ml

Guide cases for MIC ATB combined with Example, answers given:
compound | MIC ATB combined with Example
NCCCn1c2c(sc1=O)C1CN(C2)C(=O)N1OS(=O)(=O)O (centres unmarked) | <0.031 µg/mL
O=C1N2CC(n3cncn3)=CC(C2)N1OS(=O)(=O)[O-].[Na+] (centres unmarked) | >32 µg/mL
O=C1N2CC(n3cccn3)=CC(C2)N1OC(F)(F)C(=O)[O-].[Li+] (centres unmarked) | >32 µg/mL
O=C1N2CC(n3ccnn3)=CC(C2)N1OS(=O)(=O)[O-].[Na+] (centres unmarked) | >32 µg/mL

Give MIC ATB combined with Example for O=C1N2CC(n3cccn3)=CC(C2)N1OS(=O)(=O)[O-].[Na+] (centres unmarked)
16 µg/mL

---

# System: KPN BAA-1898
# assay: MIC, broth microdilution (CLSI), substance alone or ATB combined with compound at 4 or 8 μg/mL
# Assay type: cell-based, K. pneumoniae
# assay conditions: KPN BAA-1898; with Example 15 at 4 μg/ml
recorded metric: MIC ATB combined with Example 15 @4 μgml

Below, each entry is followed by its recorded MIC ATB combined with Example 15 @4 μgml result.
compound | MIC ATB combined with Example 15 @4 μgml
C[C@@H](O)[C@H]1C(=O)N2C(C(=O)O)=C(SCCN=CN)C[C@H]12 [IMI] | <0.031 µg/mL
C=CC1=C(C(=O)O)N2C(=O)[C@@H](NC(=O)/C(=N\OCC(=O)O)c3csc(N)n3)[C@H]2SC1 [FIX, Cefixime, reference compound] | <0.031 µg/mL
CN(C)c1cc(NC(=O)CNC(C)(C)C)c(O)c2c1C[C@H]1C[C@H]3[C@H](N(C)C)C(O)=C(C(N)=O)C(=O)[C@@]3(O)C(O)=C1C2=O [TGC] | <0.031 µg/mL
CO/N=C(\C(=O)N[C@@H]1C(=O)N2C(C(=O)[O-])=C(C[n+]3cccc4c3CCC4)CS[C@H]12)c1csc(N)n1 [CPO] | <=0.031 μg/mL
CC1(C)S[C@@H]2[C@H](NC(=O)[C@H](N)c3ccc(O)cc3)C(=O)N2[C@H]1C(=O)O [AMX, Amoxicillin, reference compound] | <0.031 µg/mL
COCC1=C(C(=O)O)N2C(=O)[C@@H](NC(=O)/C(=N\OC)c3csc(N)n3)[C@H]2SC1 [POD, Cefpodoxime, reference compound] | <0.031 µg/mL
CO/N=C(\C(=O)N[C@@H]1C(=O)N2C(C(=O)O)=C(COC(N)=O)CS[C@H]12)c1ccco1 [FUR, Cefuroxime, reference compound] | <0.031 µg/mL

Next, consider the following compound.
Specify MIC ATB combined with Example 15 @4 μgml for NCC[C@H](O)C(=O)N[C@@H]1C[C@H](N)[C@@H](O[C@H]2O[C@H](CN)[C@@H](O)[C@H](O)[C@H]2O)[C@H](O)[C@H]1O[C@H]1O[C@H](CO)[C@@H](O)[C@H](N)[C@H]1O [AN, Amikacin, reference compound] and stop.
<=0.031 μg/mL

---

# Tested on: SAU 29213
# assay: MIC, broth microdilution (CLSI), substance alone or ATB combined with compound at 4 or 8 μg/mL
# Type: cell-based, S. aureus
# assay conditions: ATB MEM; SAU 29213; Example @8 μg/ml
recorded metric: MIC ATB combined with Example

In the examples that follow, each entry is paired with its recorded MIC ATB combined with Example.
molecule | MIC ATB combined with Example
O=C1N2CC(n3ccnn3)=CC(C2)N1OS(=O)(=O)[O-].[Na+] (centres unmarked) [Example 12] | <0.031 µg/mL
O=C1N2CC(n3cncn3)=CC(C2)N1OS(=O)(=O)[O-].[Na+] (centres unmarked) [Example 14] | <0.031 µg/mL
O=C1N2CC(n3cccn3)=CC(C2)N1OC(F)(F)C(=O)[O-].[Li+] (centres unmarked) [Example 13] | <=0.031 μg/mL
NCCCn1c2c(sc1=O)C1CN(C2)C(=O)N1OS(=O)(=O)O (centres unmarked) [Example 10] | <=0.031 μg/mL

Attention now turns to another entry.
Supply MIC ATB combined with Example value. Item: O=C1N2CC(n3cccn3)=CC(C2)N1OS(=O)(=O)[O-].[Na+] (centres unmarked) [Example 11]
<=0.031 μg/mL

---

# Test system: SAU 29213
# assay: MIC, broth microdilution (CLSI), substance alone or ATB combined with compound at 4 or 8 μg/mL
# Assay type: cell-based, S. aureus
# assay conditions: ATB ATM; SAU 29213; Example @8 μg/ml
recorded metric: MIC ATB combined with Example

Below are worked cases with known answers.
molecule | assay result
O=C1N2CC(n3cccn3)=CC(C2)N1OS(=O)(=O)[O-].[Na+] (centres unmarked) | >32 µg/mL
NCCCn1c2c(sc1=O)C1CN(C2)C(=O)N1OS(=O)(=O)O (centres unmarked) | >32 µg/mL
O=C1N2CC(n3cccn3)=CC(C2)N1OC(F)(F)C(=O)[O-].[Li+] (centres unmarked) | >32 µg/mL
O=C1N2CC(n3cncn3)=CC(C2)N1OS(=O)(=O)[O-].[Na+] (centres unmarked) | <0.031 µg/mL

Would you kindly look at the next entry?
Report MIC ATB combined with Example under test system SAU 29213 for O=C1N2CC(n3ccnn3)=CC(C2)N1OS(=O)(=O)[O-].[Na+] (centres unmarked) .
<0.031 µg/mL

---

# Tested on: PAE 27853
# Format: cell-based, P. aeruginosa
# assay conditions: single agent at 8.MIC, tntbc: Too numerous to be counted
For each of the compounds below, state its Frequency of spontaneous resistance.
Answers are plain numbers.

compound | recorded metric | assay result
NCC[C@H](O)C(=O)N[C@@H]1C[C@H](N)[C@@H](O[C@H]2O[C@H](CN)[C@@H](O)[C@H](O)[C@H]2O)[C@H](O)[C@H]1O[C@H]1O[C@H](CO)[C@@H](O)[C@H](N)[C@H]1O [AN, Amikacin, reference compound] | Frequency of spontaneous resistance | 1.7E−07

For each entry beneath this line, provide reported Frequency of spontaneous resistance.
1. O=C(O)c1cn(C2CC2)c2cc(N3CCNCC3)c(F)cc2c1=O [CIP, Ciprofloxacin]
2. C[C@@H]1O[C@@H]1P(=O)(O)O [FOS, Fosfomycin, reference compound]

4.0E−09
1.4E−06

---

# Tested on: ECL P99
# assay: MIC, broth microdilution (CLSI), substance alone or ATB combined with compound at 4 or 8 μg/mL
# Assay type: cell-based, E. cloacae
# assay conditions: Enterobacter cloacae; substance alone; ECL P99; read-out: MIC
# Procedure: Compounds of the present invention were assessed against genotyped bacterial strains alone or in combination with an antibacterial. In the assays, MICs of said compounds or combination of antibiotics with fixed concentrations of said compounds (4 or 8 μg/mL) were determined by the broth microdilution method according to the Clinical Laboratory Standards Institute (CLSI-M7-A7). […]
recorded metric: MIC (µg/mL)
One number for each entry, in µg/mL.

molecule | scale unit | assay result
O=C1N2CC(n3cncn3)=CC(C2)N1OS(=O)(=O)[O-].[Na+] (stereo not drawn) | µg/mL | 4

In the following, a different molecule is considered.
# return MIC for O=C1N2CC(c3cccnc3)=CC(C2)N1OS(=O)(=O)[O-].[Na+] (stereo not drawn) , test system: ECL P99
8

Data origin, for the record: patent US20200024278A1
